- Test name: Phase 1 study: plasma pharmacokinetics
- Type: in vivo, human
- Setup conditions: human, plasma; patients, single oral administration 50 to 300 mg; read-out: median tmax
Measured quantity: Tmax

Inquiry: Write down Tmax measured for item COc1cc(O[C@H]2CCN(C)CC2(F)F)c2c(Nc3ccc(Oc4ccn5ncnc5c4)c(C)c3)ncnc2c1 [DZD1516]
Reply text: 2.15 to 3.22 h

====

- Test name: Phase 1 study: CSF penetration (Kp,uu,CSF)
- Type: in vivo, human
- Setup conditions: human, CSF to free plasma, oral, 250 mg, subject 8; read-out: Kp,uu,CSF
- Method: Blood samples for PK analyses of DZD1516 and DZ2678 were collected on C0D1. […] Plasma and CSF samples were analyzed by LabCorp Madison laboratory (Madison, WI, USA) and LabCorp Shanghai laboratory (Shanghai, China) using a validated LC/MS/MS bioanalytical method to determine DZD1516 and DZ2678 concentrations. […]
Measured quantity: Kp uu
Respond numerically, and do not add a unit to the figure.

Inquiry: Write down Kp uu measured for item COc1cc(O[C@H]2CCN(C)CC2(F)F)c2c(Nc3ccc(Oc4ccn5ncnc5c4)c(C)c3)ncnc2c1 [DZD1516]
Reply text: 3.13
